Reference for the values: paper PMC10525924

remaining at 3 h values by entry
- System: pepsin
- TEST: Remaining amount by RP-HPLC after pepsin treatment
- Type: in vitro ADME
- CONDITION_SET: pepsin (isolated protease); pepsin treated for 3 h; read-out RP-HPLC; Table S2
Where a SMILES comes first, the peptide text is derived from it.

Here are 2 compounds together with their reported answers.
Exercise: Which remaining at 3 h value is on record for CSCC[C@H](NC=O)C(=O)N[C@@H](CC(N)=O)C(=O)N[C@H](C(=O)NCC(=O)N[C@@H](CC(N)=O)C(=O)N[C@@H](C)C(=O)N[C@@H](CC(=O)O)C(=O)NP(=O)(OCCCN)OC[C@H]1O[C@@H](n2cnc3c(N)ncnc32)[C@H](O)[C@@H]1O)[C@@H](C)O (stereo partly drawn) [R2N] (HELM PEPTIDE1{[O=C[*:2]].M.N.T.G.N.A.[NCCCOP(=O)(NC(=O)[C@H](CC(=O)O)N[*:1])OC[C@H]1O[C@@H](n2cnc3c(N)ncnc32)[C@H](O)[C@@H]1O]}$$$$V2.0) ?
Solution: 88.8%

Exercise: And what about the compound CSCC[C@H](NC=O)C(=O)N[C@@H](CCC(=O)O)C(=O)N[C@H](C(=O)NCC(=O)N[C@@H](CC(N)=O)C(=O)N[C@@H](C)C(=O)N[C@@H](CC(=O)O)C(=O)NP(=O)(OCCCN)OC[C@H]1O[C@@H](n2cnc3c(N)ncnc32)[C@H](O)[C@@H]1O)[C@@H](C)O (stereo partly drawn) [R2E] (HELM PEPTIDE1{[O=C[*:2]].M.E.T.G.N.A.[NCCCOP(=O)(NC(=O)[C@H](CC(=O)O)N[*:1])OC[C@H]1O[C@@H](n2cnc3c(N)ncnc32)[C@H](O)[C@@H]1O]}$$$$V2.0) ?
Solution: 90.7%

Moving on to another compound below.
Exercise: Which remaining at 3 h value is on record for CSCC[C@H](NC=O)C(=O)N1CCC[C@H]1C(=O)N[C@H](C(=O)NCC(=O)N[C@@H](CC(N)=O)C(=O)N[C@@H](C)C(=O)N[C@@H](CC(=O)O)C(=O)NP(=O)(OCCCN)OC[C@H]1O[C@@H](n2cnc3c(N)ncnc32)[C@H](O)[C@@H]1O)[C@@H](C)O (stereo partly drawn) [R2P] (HELM PEPTIDE1{[O=C[*:2]].M.P.T.G.N.A.[NCCCOP(=O)(NC(=O)[C@H](CC(=O)O)N[*:1])OC[C@H]1O[C@@H](n2cnc3c(N)ncnc32)[C@H](O)[C@@H]1O]}$$$$V2.0) ?
Solution: 86.9%

* * *

- TEST: Remaining amount by RP-HPLC after chymotrypsin treatment
- Assay type: in vitro ADME
- CONDITION_SET: isolated enzyme chymotrypsin; chymotrypsin treated for 3 h; read-out RP-HPLC; Table S2
Where a SMILES comes first, the peptide text is derived from it.
READOUT_NAME: remaining at 3 h (%)
Field format: number, assumed %, no unit text.

Exercise: Which remaining at 3 h value is on record for CSCC[C@H](NC=O)C(=O)N[C@H](C(=O)N[C@H](C(=O)NCC(=O)N[C@@H](CC(N)=O)C(=O)N[C@@H](C)C(=O)N[C@@H](CC(=O)O)C(=O)NP(=O)(OCCCN)OC[C@H]1O[C@@H](n2cnc3c(N)ncnc32)[C@H](O)[C@@H]1O)[C@@H](C)O)C(C)C (stereo partly drawn) [R2V] (HELM PEPTIDE1{[O=C[*:2]].M.V.T.G.N.A.[NCCCOP(=O)(NC(=O)[C@H](CC(=O)O)N[*:1])OC[C@H]1O[C@@H](n2cnc3c(N)ncnc32)[C@H](O)[C@@H]1O]}$$$$V2.0) ?
Solution: 39.1

Exercise: And what about the compound CSCC[C@H](NC=O)C(=O)N[C@@H](Cc1ccccc1)C(=O)N[C@H](C(=O)NCC(=O)N[C@@H](CC(N)=O)C(=O)N[C@@H](C)C(=O)N[C@@H](CC(=O)O)C(=O)NP(=O)(OCCCN)OC[C@H]1O[C@@H](n2cnc3c(N)ncnc32)[C@H](O)[C@@H]1O)[C@@H](C)O (stereo partly drawn) [R2F] (HELM PEPTIDE1{[O=C[*:2]].M.F.T.G.N.A.[NCCCOP(=O)(NC(=O)[C@H](CC(=O)O)N[*:1])OC[C@H]1O[C@@H](n2cnc3c(N)ncnc32)[C@H](O)[C@@H]1O]}$$$$V2.0) ?
Solution: 41.1

Exercise: And what about the compound CSCC[C@H](NC=O)C(=O)N[C@@H](CC(C)C)C(=O)N[C@H](C(=O)NCC(=O)N[C@@H](CC(N)=O)C(=O)N[C@@H](C)C(=O)N[C@@H](CC(=O)O)C(=O)NP(=O)(OCCCN)OC[C@H]1O[C@@H](n2cnc3c(N)ncnc32)[C@H](O)[C@@H]1O)[C@@H](C)O (stereo partly drawn) [R2L] (HELM PEPTIDE1{[O=C[*:2]].M.L.T.G.N.A.[NCCCOP(=O)(NC(=O)[C@H](CC(=O)O)N[*:1])OC[C@H]1O[C@@H](n2cnc3c(N)ncnc32)[C@H](O)[C@@H]1O]}$$$$V2.0) ?
Solution: 39.2

Exercise: And what about the compound CSCC[C@H](NC=O)C(=O)N[C@@H](Cc1c[nH]cn1)C(=O)N[C@H](C(=O)NCC(=O)N[C@@H](CC(N)=O)C(=O)N[C@@H](C)C(=O)N[C@@H](CC(=O)O)C(=O)NP(=O)(OCCCN)OC[C@H]1O[C@@H](n2cnc3c(N)ncnc32)[C@H](O)[C@@H]1O)[C@@H](C)O (stereo partly drawn) [R2H] (HELM PEPTIDE1{[O=C[*:2]].M.H.T.G.N.A.[NCCCOP(=O)(NC(=O)[C@H](CC(=O)O)N[*:1])OC[C@H]1O[C@@H](n2cnc3c(N)ncnc32)[C@H](O)[C@@H]1O]}$$$$V2.0) ?
Solution: 42.7

Exercise: And what about the compound CSCC[C@H](NC=O)C(=O)N[C@@H](CC(=O)O)C(=O)N[C@H](C(=O)NCC(=O)N[C@@H](CC(N)=O)C(=O)N[C@@H](C)C(=O)N[C@@H](CC(=O)O)C(=O)NP(=O)(OCCCN)OC[C@H]1O[C@@H](n2cnc3c(N)ncnc32)[C@H](O)[C@@H]1O)[C@@H](C)O (stereo partly drawn) [R2D] (HELM PEPTIDE1{[O=C[*:2]].M.D.T.G.N.A.[NCCCOP(=O)(NC(=O)[C@H](CC(=O)O)N[*:1])OC[C@H]1O[C@@H](n2cnc3c(N)ncnc32)[C@H](O)[C@@H]1O]}$$$$V2.0) ?
Solution: 42.4

Exercise: And what about the compound CSCC[C@H](NC=O)C(=O)N[C@@H](CO)C(=O)N[C@H](C(=O)NCC(=O)N[C@@H](CC(N)=O)C(=O)N[C@@H](C)C(=O)N[C@@H](CC(=O)O)C(=O)NP(=O)(OCCCN)OC[C@H]1O[C@@H](n2cnc3c(N)ncnc32)[C@H](O)[C@@H]1O)[C@@H](C)O (stereo partly drawn) [R2S] (HELM PEPTIDE1{[O=C[*:2]].M.S.T.G.N.A.[NCCCOP(=O)(NC(=O)[C@H](CC(=O)O)N[*:1])OC[C@H]1O[C@@H](n2cnc3c(N)ncnc32)[C@H](O)[C@@H]1O]}$$$$V2.0) ?
Solution: 41.3
